Values compiled from patent US9737552B2.

protocol text: Mass spectrometry of 2-PMPA concentration in post-mortem brains of EAE mice
Format: in vivo
reported conditions: mouse, hippocampus, ip; Mean±SEM; 100 mg/kg daily i.p.; sacrifice 50 days after immunization; read-out: 2-PMPA in the hippocampus
Protocol: To determine whether GCPII inhibition altered the levels of the enzyme's substrate (NAAG) or product (NAA), mass spectrometry was conducted in post-mortem brains of EAE mice either treated with 2-PMPA or a vehicle control. […] Hippocampus, frontal lobe, and cerebellum structures were dissected, and NAA, NAAG, and 2-PMPA concentrations were measured via mass spectrometry. […] NAA, NAAG, and the internal standard were monitored by tandem mass spectrometry with electrospray negative ionization. […]
outcome measure: concentration at 50 days after EAE immunization

compound="O=C(O)CCC(CP(=O)(O)O)C(=O)O (stereo not shown)" result="835 ng/g"
